Origin of measurements: patent US20180208605A1

- test-target: recombinant IRAK-4 kinase (Homo sapiens, UniProt Q9NWZ3)
- Construct: purchased Millipore, USA
- Sequence (Q9NWZ3 1-460): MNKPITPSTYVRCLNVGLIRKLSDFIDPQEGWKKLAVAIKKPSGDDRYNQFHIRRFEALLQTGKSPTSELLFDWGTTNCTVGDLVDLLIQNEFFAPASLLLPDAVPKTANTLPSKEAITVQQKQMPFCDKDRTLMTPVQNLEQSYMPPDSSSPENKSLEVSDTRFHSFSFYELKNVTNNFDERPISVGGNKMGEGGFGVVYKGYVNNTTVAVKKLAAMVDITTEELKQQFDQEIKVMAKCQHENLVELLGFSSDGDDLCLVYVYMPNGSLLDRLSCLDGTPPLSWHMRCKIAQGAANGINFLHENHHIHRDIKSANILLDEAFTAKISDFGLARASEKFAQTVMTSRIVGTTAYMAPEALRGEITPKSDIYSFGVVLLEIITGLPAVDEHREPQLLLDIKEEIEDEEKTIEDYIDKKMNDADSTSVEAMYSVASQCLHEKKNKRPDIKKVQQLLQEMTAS
- assay-protocol: IRAK-4 Biochemical Assay (TR-FRET, percent inhibition)
- measurement-setup: read-out: % inhibition of IRAK-4 @0.1 μM, compound at 0.1 μM; TR-FRET, 20 μM ATP, 100 nM Biotin Histone H3
Counter-ions that a name gives are not always drawn.
inhibition at 0.1 µM by entry:
// return numeric value only (unit: %, not printed)

compound | unit-string | inhibition at 0.1 µM
NCC(=O)O[C@H]1CCN(c2nccc(C(=O)Nc3cc4sc(N5CCOCC5)nc4nc3N3CCCCC3)n2)C1 | % | 74
Nc1ccc(-c2cccc(C(=O)Nc3cc4sc(N5CCOCC5)nc4nc3C3CC3)n2)cn1 | % | 98
Cc1cc(-c2nc(C(=O)Nc3cc4oc(N5CCOCC5)nc4nc3OC3CCC(N4CCOCC4)CC3)co2)ccn1 (stereo not shown) [Example 16, hydrochloride] | % | 94
NC1CCCN(c2ccn3ncc(C(=O)Nc4cc5sc(N6CCOCC6)nc5nc4N4CC[C@@H](O)C4)c3n2)C1 (stereo partly shown) [Example 102, hydrochloride] | % | 21
O=C(Nc1cc2sc(N3CCOCC3)nc2nc1N1CCCCC1)c1cccc(N2CCC(CCO)CC2)n1 | % | 92
O=C(Nc1cc2sc(N3CCOCC3)nc2nc1N1CCCCC1)c1cccc(N2CC[C@H](O)C2)n1 [Example 42, hydrochloride] | % | 94

Field: next compound
Kindly note the recorded inhibition at 0.1 µM for O=C(Nc1cc2oc(N3CCOCC3)nc2nc1N1CCCCC1)c1cnn2cccnc12 , which is 97
